# System: U2OS
# Assay notes: Multiplex assay against U2OS
# Assay type: toxicity, cell-based
# Experimental setup: human, 12 h, 1 µM, compound concentration 1 uM, replicate 2
Measured endpoint: Total Cell Count

Compound | Endpoint value
C[C@@H]1CC(=O)Nc2cccc(-c3ccc4c(c3)c(-c3cnn(C)c3)nn4C)c2N1 | 116
Cc1cc(=O)n(C)c2cc(N3C(=O)CC[C@H](NS(=O)(=O)CC(C)C)[C@H]3c3ccc(Cl)cc3)ccc12 | 110
CSc1nc(NC2CCCC2)c([N+](=O)[O-])c(NC2CCCC2)n1 [GS-39783] | 96
COc1cc2nc(N3CCN(C(=O)COc4c(OC)cccc4C(C)C)CC3)nc(N)c2cc1OC.Cl.Cl | 136
CCn1c(-c2nc3cc(C(=O)N4CCCC(N)C4)ccc3n2C)cc2ccccc21.Cl (centres undefined) | 90
CN(C)C/C=C/C(=O)Nc1ccc(C(=O)N2CCCC(Nc3ncc(Cl)c(-c4c[nH]c5ccccc45)n3)C2)cc1 (centres undefined) | 139
CN1CCN(c2ccc(Nc3c4ccccc4nc4ccccc34)cc2)CC1.Cl.Cl.O | 107
OCCCNc1cc(-c2ccnc(Nc3cccc(Cl)c3)n2)ccn1 | 76
COc1cc(C(=O)N2CC[C@@H](O)[C@@H](N)C2)cc2nc(-c3cc4ccccc4n3CC3CC3)n(C)c12.Cl | 92

* * *

# Test system: HEK-293T
# Assay notes: Multiplex assay against HEK293T
# Format: toxicity, cell-based
# Experimental setup: human, 12 h, 1 µM, compound concentration 1 uM, replicate 2
Non-standard residues stand in square brackets, D forms with d. Residues, ends and D or L forms follow the SMILES beside them.
Assign class by Population Fragmented Nuclei (%): not lower than 6% means 1 (yes); lower than 6% means 0 (no).

Molecule | Experimental system | Qualitative label
Nc1nc(-c2ccco2)c2cnn(Cc3ccccc3F)c2n1 | HEK-293T | 0 (no)
COc1c(Nc2ccc(S(C)(=O)=O)nc2C)ncnc1OC1CCN(C(=O)OC(C)C)CC1 | HEK-293T | 0 (no)
S=C(NCCCc1c[nH]cn1)NCCCN(Cc1ccc(Cl)c(Cl)c1)c1ccc(Br)cn1 | HEK-293T | 0 (no)
COc1cc(C(=O)N2CC[C@@H](O)[C@@H](N)C2)cc2nc(-c3cc4ccccc4n3CC3CC3)n(C)c12.Cl | HEK-293T | 0 (no)
CCc1nn2c(C)cc(C)nc2c1Cc1ccc(-c2nnc(C3CCNCC3)o2)cc1 | HEK-293T | 1 (yes)
C=CCN1C[C@H](C(=O)N(CCCN(C)C)C(=O)NCC)C[C@@H]2c3cccc4[nH]cc(c34)C[C@H]21 | HEK-293T | 0 (no)
O=c1nc2[nH]c3ccccc3nc-2c(=O)[nH]1 | HEK-293T | 0 (no)
Cc1cc(O)c(-c2ccc([C@@H](C)CN(C)C)cc2)c2c1[nH]c(=O)c1sccc12 | HEK-293T | 1 (yes)
CN1C[C@H](C(=O)N[C@]2(C)O[C@@]3(O)[C@@H]4CCCN4C(=O)[C@H](Cc4ccccc4)N3C2=O)C[C@@H]2c3cccc4[nH]cc(c34)C[C@H]21.CS(=O)(=O)O [DIHYDROERGOTAMINE MESYLATE] | HEK-293T | 0 (no)
Nc1nc(CC(=O)Nc2ccc(CCNC[C@H](O)c3ccccc3)cc2)cs1 | HEK-293T | 1 (yes)
COCCn1c(C)c(C)s/c1=N\C(=O)C1C(C)(C)C1(C)C | HEK-293T | 0 (no)
CN1CCN(c2ccc(Nc3c4ccccc4nc4ccccc34)cc2)CC1.Cl.Cl.O | HEK-293T | 0 (no)
O=c1ccc2ccc(OCCCCN3CCN(c4cccc5sccc45)CC3)cc2[nH]1 | HEK-293T | 0 (no)
Cc1ccc(OCC(O)C(C)NC(C)C)c2c1CCC2.Cl (stereo not drawn) | HEK-293T | 0 (no)
COc1cc2nc(N3CCN(C(=O)COc4c(OC)cccc4C(C)C)CC3)nc(N)c2cc1OC.Cl.Cl | HEK-293T | 1 (yes)
CN1CCN2c3ccccc3Cc3ccccc3C2C1.Cl (stereo not drawn) [MIANSERIN HYDROCHLORIDE] | HEK-293T | 1 (yes)
Cc1cc(NC(=O)NCCN2CCC(O)(Cc3ccccc3)CC2)c2ccccc2n1 | HEK-293T | 1 (yes)
CC(C)C[C@H](CO)Nc1nc(S[C@@H](C)c2ccccc2)nc2nc(N)sc12 | HEK-293T | 1 (yes)
Cl.Cl.OCCOCCN1CCN(C(c2ccccc2)c2ccc(Cl)cc2)CC1 (stereo not drawn) [HYDROXYZINE HYDROCHLORIDE] | HEK-293T | 0 (no)
COc1ccc2c(c1OCc1ccccc1)C[C@@H](C(=O)O)N(C(=O)C(c1ccccc1)c1ccccc1)C2 | HEK-293T | 1 (yes)
N[C@](CC1c2ccccc2Oc2ccccc21)(C(=O)O)[C@H]1C[C@@H]1C(=O)O | HEK-293T | 1 (yes)
OCCCNc1cc(-c2ccnc(Nc3cccc(Cl)c3)n2)ccn1 | HEK-293T | 1 (yes)
CSc1nc(NC2CCCC2)c([N+](=O)[O-])c(NC2CCCC2)n1 | HEK-293T | 0 (no)
CCC(=O)OCC(=O)[C@@]1(OC(=O)CC)[C@@H](C)C[C@H]2[C@@H]3CCC4=CC(=O)C=C[C@]4(C)[C@@]3(Cl)[C@@H](O)C[C@@]21C [BECLOMETHASONE DIPROPIONATE] | HEK-293T | 0 (no)
C[C@@H]1CC(=O)Nc2cccc(-c3ccc4c(c3)c(-c3cnn(C)c3)nn4C)c2N1 | HEK-293T | 0 (no)
CC(C)C[C@@H]1NC(=O)[C@@H](C(C)C)NC(=O)[C@@H]2CCCN2C(=O)[C@@H](CC(=O)O)NC(=O)[C@@H](Cc2c[nH]c3ccccc23)NC1=O [BQ-123] (cyclo(L[dW][dD]P[dV])) | HEK-293T | 0 (no)
